# log10 of EC50 per record follows
# Test system: recombinant NL-Rluc virus
# ASSAY NOTES: microbe, parasite or virus in culture
# Assay type: cell-based, HIV
# DETAILS: NL-RLuc virus infecting MT-2 cells, 5 days of incubation, luciferase readout; at least 2 experiments; serum condition not given; read-out: EC50
RECORDED ENDPOINT: log10 of EC50 (log10 of the value in nM)

> print(dat)
                                   compound  measured.result
1  Cc1nc2cc(N3CC(Cc4ccccc4)OC3=O)nn2c(N2CCC(C)(C)CC2)c1[C@H](OC(C)(C)C)C(=O)O (stereo partly drawn) [Example 30]             1.20
2  Cc1nc2cc(N3C(=O)OCC3Cc3ccccc3)nn2c(N2CCC(C)(C)CC2)c1[C@H](OC(C)(C)C)C(=O)O (stereo partly drawn) [Example 28]             2.18
3  Cc1nc2cc(N3CCC(Oc4ccccc4)C3=O)nn2c(N2CCC(C)(C)CC2)c1[C@H](OC(C)(C)C)C(=O)O (stereo partly drawn) [Example 31]             2.91
4  Cc1nc2cc(N3CCC(Oc4ccccc4)C3=O)nn2c(N2CCC(C)(C)CC2)c1[C@H](OC(C)(C)C)C(=O)O (stereo partly drawn) [Example 32]             2.53
5  Cc1nc2cc(N3CC(Cc4ccccc4)OC3=O)nn2c(N2CCC(C)(C)CC2)c1[C@H](OC(C)(C)C)C(=O)O (stereo partly drawn) [Example 29]             0.78
6  Cc1nc2cc(N3C(=O)OCC3Cc3ccccc3)nn2c(N2CCC(C)(C)CC2)c1[C@H](OC(C)(C)C)C(=O)O (stereo partly drawn) [Example 27]             2.68
